The measured values listed here are drawn from patent US20130273029A1.

# MEASURED_ON: Human HER3, endogenous, on human cancer cell lines (SK-Br-3, MCF7, BT-474) (human, UniProt P21860 20-1342)
# Sequence (P21860 20-1342): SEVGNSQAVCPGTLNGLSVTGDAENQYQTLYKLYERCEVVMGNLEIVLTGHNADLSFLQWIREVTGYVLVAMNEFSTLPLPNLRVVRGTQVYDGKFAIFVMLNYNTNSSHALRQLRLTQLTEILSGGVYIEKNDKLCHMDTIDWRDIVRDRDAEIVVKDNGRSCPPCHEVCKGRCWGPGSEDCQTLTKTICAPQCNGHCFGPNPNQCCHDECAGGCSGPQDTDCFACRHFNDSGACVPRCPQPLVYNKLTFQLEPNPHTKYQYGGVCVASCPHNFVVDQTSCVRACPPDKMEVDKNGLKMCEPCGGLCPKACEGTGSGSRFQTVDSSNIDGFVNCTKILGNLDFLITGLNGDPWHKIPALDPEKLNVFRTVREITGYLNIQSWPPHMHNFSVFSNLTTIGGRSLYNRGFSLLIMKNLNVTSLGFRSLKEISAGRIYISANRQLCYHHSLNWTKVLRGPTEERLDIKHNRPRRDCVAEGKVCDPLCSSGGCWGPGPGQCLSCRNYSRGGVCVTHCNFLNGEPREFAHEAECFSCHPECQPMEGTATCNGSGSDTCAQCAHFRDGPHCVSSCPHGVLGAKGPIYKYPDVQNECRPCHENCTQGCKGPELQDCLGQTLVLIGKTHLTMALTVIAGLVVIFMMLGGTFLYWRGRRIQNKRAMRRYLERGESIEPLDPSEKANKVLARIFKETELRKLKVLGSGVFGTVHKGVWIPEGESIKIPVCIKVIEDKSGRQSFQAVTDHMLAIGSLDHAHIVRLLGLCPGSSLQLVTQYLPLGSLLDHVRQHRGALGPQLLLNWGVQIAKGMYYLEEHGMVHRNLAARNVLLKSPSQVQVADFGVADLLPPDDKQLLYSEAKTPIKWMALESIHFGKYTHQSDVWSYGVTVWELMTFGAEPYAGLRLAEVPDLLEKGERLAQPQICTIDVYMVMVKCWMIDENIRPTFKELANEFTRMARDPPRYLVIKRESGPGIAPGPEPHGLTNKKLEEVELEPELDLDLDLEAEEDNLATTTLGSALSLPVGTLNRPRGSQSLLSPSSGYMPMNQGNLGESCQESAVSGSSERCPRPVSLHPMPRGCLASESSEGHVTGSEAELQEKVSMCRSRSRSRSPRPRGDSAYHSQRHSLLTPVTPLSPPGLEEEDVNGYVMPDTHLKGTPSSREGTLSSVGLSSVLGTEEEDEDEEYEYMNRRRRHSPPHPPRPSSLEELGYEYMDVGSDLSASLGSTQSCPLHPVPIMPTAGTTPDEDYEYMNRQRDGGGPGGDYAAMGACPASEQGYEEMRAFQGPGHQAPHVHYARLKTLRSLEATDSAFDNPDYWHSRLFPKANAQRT
# ASSAY_NAME: cell-based or functional assay
METRIC_NAME: MCF7 proliferation % inhibition (%)
Number only, in %; omit the unit.

See these solved cases before continuing.
MOR13869 (antibody, human IgG1, kappa, V domains shown, tested as IgG) VH: QVQLVQSGAEVKKPGESLKISCKGSGYSFSNYWIAWVRQMPGKGLEWMGIIYPGGSDTIYSPSFQGQVTISADKSISTAYLQWSSLKASDTAMYYCARVHIIQPPSAWSYNAMDVWGQGTLVTVSS VL: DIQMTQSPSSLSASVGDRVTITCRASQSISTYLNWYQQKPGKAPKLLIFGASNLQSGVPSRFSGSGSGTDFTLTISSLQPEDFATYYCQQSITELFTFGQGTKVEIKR; 52
MOR12616 (antibody, human IgG1, kappa, V domains shown, tested as IgG) VH: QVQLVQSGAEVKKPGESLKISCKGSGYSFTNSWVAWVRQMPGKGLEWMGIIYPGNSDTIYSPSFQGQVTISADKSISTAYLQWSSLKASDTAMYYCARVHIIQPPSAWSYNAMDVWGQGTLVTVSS VL: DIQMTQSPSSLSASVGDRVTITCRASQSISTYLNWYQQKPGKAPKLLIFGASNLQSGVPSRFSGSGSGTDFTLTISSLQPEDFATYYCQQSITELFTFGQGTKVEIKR; 32
MOR13867 (antibody, human IgG1, kappa, V domains shown, tested as IgG) VH: QVQLVQSGAEVKKPGESLKISCKGSGYSFSNYWIAWVRQMPGKGLEWMGIIYPGQSDTIYSPSFQGQVTISADKSISTAYLQWSSLKASDTAMYYCARVHIIQPPSAWSYNAMDVWGQGTLVTVSS VL: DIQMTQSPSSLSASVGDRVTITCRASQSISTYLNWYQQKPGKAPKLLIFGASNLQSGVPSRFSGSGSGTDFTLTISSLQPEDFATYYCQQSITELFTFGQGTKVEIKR; 69
MOR12510 (antibody, human IgG1, kappa, V domains shown, tested as IgG) VH: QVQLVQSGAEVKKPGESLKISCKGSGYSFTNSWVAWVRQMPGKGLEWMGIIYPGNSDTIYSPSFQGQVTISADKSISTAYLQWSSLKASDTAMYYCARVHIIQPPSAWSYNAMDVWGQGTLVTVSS VL: DIQMTQSPSSLSASVGDRVTITCRASQSISTYLNWYQQKPGKAPKLLIFGASNLQSGVPSRFSGSGSGTDFTLTISSLQPEDFATYYCQQDIDEPWTFGQGTKVEIKR; 25

Moving on to another binder below.
Entry under review: MOR12924 (antibody, human IgG1, kappa, V domains shown) VH: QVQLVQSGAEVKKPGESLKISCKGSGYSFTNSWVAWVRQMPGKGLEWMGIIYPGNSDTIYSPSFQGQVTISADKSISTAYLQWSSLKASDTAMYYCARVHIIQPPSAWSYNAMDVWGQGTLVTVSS VL: DIQMTQSPSSLSASVGDRVTITCRASQSISTYLNWYQQKPGKAPKLLIFGASNLQSGVPSRFSGSGSGTDFTLTISSLQPEDFATYYCQQSVWEPATFGQGTKVEIKR . Reported MCF7 proliferation % inhibition? 23
